Source: PubChem BioAssay AID1456

- study-system: Solute carrier family 12 member 5 (Homo sapiens) (UniProt Q9H2X9)
- Sequence (Q9H2X9 whole entry, looked up): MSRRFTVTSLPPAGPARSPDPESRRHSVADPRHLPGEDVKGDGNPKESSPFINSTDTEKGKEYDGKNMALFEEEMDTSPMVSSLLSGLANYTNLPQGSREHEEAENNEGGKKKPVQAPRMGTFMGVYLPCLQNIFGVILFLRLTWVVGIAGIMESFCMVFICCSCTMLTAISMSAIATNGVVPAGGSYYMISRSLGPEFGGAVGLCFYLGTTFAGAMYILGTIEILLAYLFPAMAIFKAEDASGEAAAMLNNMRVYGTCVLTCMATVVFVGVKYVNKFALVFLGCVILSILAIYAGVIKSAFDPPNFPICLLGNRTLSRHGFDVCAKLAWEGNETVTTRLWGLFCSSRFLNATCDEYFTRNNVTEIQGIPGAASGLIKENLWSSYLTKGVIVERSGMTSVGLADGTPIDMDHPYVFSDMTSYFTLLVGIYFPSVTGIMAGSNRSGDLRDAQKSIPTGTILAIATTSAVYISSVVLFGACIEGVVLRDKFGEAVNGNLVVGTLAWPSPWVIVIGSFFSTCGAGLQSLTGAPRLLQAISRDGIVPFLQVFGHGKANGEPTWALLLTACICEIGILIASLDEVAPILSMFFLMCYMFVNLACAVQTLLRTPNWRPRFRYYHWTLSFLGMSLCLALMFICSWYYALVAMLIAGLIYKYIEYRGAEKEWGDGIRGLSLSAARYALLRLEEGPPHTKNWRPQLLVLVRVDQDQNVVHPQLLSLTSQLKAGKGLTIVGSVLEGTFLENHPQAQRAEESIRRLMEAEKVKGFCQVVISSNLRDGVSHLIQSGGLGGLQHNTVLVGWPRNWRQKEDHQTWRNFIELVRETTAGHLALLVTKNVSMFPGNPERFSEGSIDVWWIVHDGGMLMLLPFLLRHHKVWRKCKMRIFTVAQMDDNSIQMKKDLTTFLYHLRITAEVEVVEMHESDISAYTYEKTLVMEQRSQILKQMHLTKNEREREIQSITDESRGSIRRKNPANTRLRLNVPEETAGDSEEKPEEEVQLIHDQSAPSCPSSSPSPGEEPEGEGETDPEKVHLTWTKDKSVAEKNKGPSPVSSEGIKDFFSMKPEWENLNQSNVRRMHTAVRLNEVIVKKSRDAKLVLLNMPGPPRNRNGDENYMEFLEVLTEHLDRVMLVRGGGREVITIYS
- procedure-text: modulation of human KCC2 ion transport – cell-based, HEK293 KCC2, FluoZin-2 fluorescence, MLSMR, primary screen (AID 1456);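 further: slope of fluorescence scaled to starting intensity during 10 to 20 s after thallium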
- condition: KCC2 cells, thallium flux FluoZin-2 fluorescence; at 10 µM
The campaign covered roughly 190,000 compounds. About 4,100 (2.2%) were called active. The list comes from a sample in which actives are over-represented; it also holds close analogues and randomly drawn compounds.
Values of B-score of Tl+ flux slope (higher = more flux/activation; lower = inhibition) greater than or equal to 0.6 map to 1 (yes); values below map to 0 (no).

> print(dat)
                                    compound  label.value
 1     Cc1nnc2n1N=C(c1ccc3c(c1)NC(=O)CO3)CS2       0 (no)
 2  Cc1cc(-c2n[nH]c(=S)n2/N=C/c2ccco2)n[nH]1       0 (no)
 3    Cc1ccc(/C=N\n2c(-c3ccccc3)n[nH]c2=S)s1      1 (yes)
 4  CC(=O)c1cccc(S(=O)(=O)N2CCC(n3nnc4cc(F)ccc43)CC2)c1       0 (no)
 5      Nc1nnnn1/N=C/c1cc([N+](=O)[O-])ccc1O       0 (no)
 6  CN(C)S(=O)(=O)c1ccc(C(=O)NCC(C)(C)N2CCOCC2)cc1       0 (no)
 7       S=c1[nH]nc(-c2ccco2)n1/N=C/c1ccccc1      1 (yes)
 8  S=c1[nH]nc(-c2ccccc2)n1/N=C/c1c[nH]c2ccccc12       0 (no)
 9  COc1ccc(Cl)cc1C(=O)NNC(=S)NC(=O)/C=C/c1ccco1      1 (yes)
10  CCN(CC)S(=O)(=O)c1cccc(-c2n[nH]c(=S)n2/N=C/c2ccc(C(=O)OC)cc2)c1      1 (yes)
11    S=c1[nH]nc(-c2ccco2)n1/N=C/c1ccc(Br)s1      1 (yes)
12  COc1ccc(N2CCC(CNC(=S)Nc3c(C)cccc3C)C2)cc1 (stereo not drawn)       0 (no)
13  O=C(O)CCC(=O)Nc1nc2ccc([N+](=O)[O-])cc2s1       0 (no)
14  CCOc1ccc(NS(=O)(=O)c2ccc(C)c(C(N)=O)c2)cc1       0 (no)
15       Cc1cc(C)cc(NS(=O)(=O)c2ccc(F)cc2)c1       0 (no)
16  COc1cc(/C=N/n2c(C)n[nH]c2=S)ccc1OCc1ccccc1      1 (yes)
17      Clc1ccc2nc(-c3ccccc3)nc(C(Cl)Cl)c2c1      1 (yes)
18  O=S(=O)(c1cccc(-c2nnc3n2CCCCC3)c1)N1CCOCC1       0 (no)
19           C=CCNC(=S)NNC(=O)c1cc(Cl)ccc1OC       0 (no)
20  O=C(NC(Nc1nc2ccc([N+](=O)[O-])cc2s1)(C(F)(F)F)C(F)(F)F)c1ccccc1      1 (yes)
21    Cc1cccc(NC(=O)c2ccc([N+](=O)[O-])o2)c1       0 (no)
22  O=c1c(-c2ccc(Cl)cc2)[n+]([O-])c2ccccc2n1OCc1nc2ccccc2[nH]1      1 (yes)
23      Cc1ccc(-c2csc(NNC(=O)c3ccccc3)n2)cc1       0 (no)
